Quick list: MIC80 per entry.
test system: Saccharomyces cerevisiae; assay: Antifungal activity against Saccharomyces cerevisiae AD over-expressing Candida albicans CDR1 transporter after 48 hrs; type: functional
I only need the number, in µM, no unit after it.

Recorded MIC80, per entry:
>  <compound>
C=C1[C@@H](OC(C)=O)[C@H]2[C@@H](OC(=O)c3ccccc3)[C@@H](C)C[C@]2(O)[C@H](O)[C@H](C)/C=C/C(C)(C)C(=O)[C@H](OC(=O)C(C)C)[C@H]1OC(C)=O

>  <target under test>
Saccharomyces cerevisiae

>  <readout value>
710

$$$$
>  <compound>
C=C1[C@@H](OC(=O)C(C)CC)[C@H]2[C@@H](O)[C@](C)(OC(C)=O)C[C@]2(O)C(=O)[C@@H](C)/C=C/C(C)(C)[C@H](OC(C)=O)[C@H](OC(C)=O)[C@H]1OC(=O)c1ccccc1 (some centres undefined)

>  <target under test>
Saccharomyces cerevisiae

>  <readout value>
681

$$$$
>  <compound>
CC(=O)O[C@H]1[C@@H](OC(C)=O)C(C)(C)/C=C/[C@@](C)(O)C(=O)[C@@]2(O)C[C@@](C)(OC(C)=O)[C@H](OC(C)=O)[C@@H]2[C@H]2OC(=O)CC[C@@]2(OC(C)=O)[C@@H]1OC(=O)C(C)C

>  <target under test>
Saccharomyces cerevisiae

>  <readout value>
711

$$$$

Would you kindly look at the next entry?
QUERY: Write down the reported MIC80 of C=C1[C@@H](OC(C)=O)[C@H]2[C@@H](OC(=O)COC(=O)c3ccccc3)[C@](C)(OC(C)=O)C[C@]2(O)C(=O)[C@@H](C)/C=C/C(C)(C)[C@H](OC(C)=O)[C@H](OC(C)=O)[C@H]1OC(=O)C(C)C , test system: Saccharomyces cerevisiae.
RESULT: 416

====

tested on: Candida albicans; assay: Inhibition of Candida albicans MDR1 expressed in Saccharomyces cerevisiae AD assessed as potentiation of fluconazole-induced antifungal activity against Saccharomyces cerevisiae AD by checkerboard method
recorded endpoint: fractional inhibitory concentration index (FICI)
Kindly provide the number alone.

Examples with their reported fractional inhibitory concentration index (FICI) follow.
>  <molecule>
C=C1[C@@H](OC(C)=O)[C@H]2[C@@H](OC(=O)COC(=O)c3ccccc3)[C@](C)(OC(C)=O)C[C@]2(O)C(=O)[C@@H](C)/C=C/C(C)(C)[C@H](OC(C)=O)[C@H](OC(C)=O)[C@H]1OC(=O)C(C)C

>  <readout value>
2

$$$$
>  <molecule>
C=C1[C@@H](OC(C)=O)[C@H]2[C@@H](OC(=O)c3ccccc3)[C@@H](C)C[C@]2(O)[C@H](O)[C@H](C)/C=C/C(C)(C)C(=O)[C@H](OC(=O)C(C)C)[C@H]1OC(C)=O

>  <readout value>
2

$$$$
>  <molecule>
CC(=O)O[C@H]1[C@@H](OC(C)=O)C(C)(C)/C=C/[C@@](C)(O)C(=O)[C@@]2(O)C[C@@](C)(OC(C)=O)[C@H](OC(C)=O)[C@@H]2[C@H]2OC(=O)CC[C@@]2(OC(C)=O)[C@@H]1OC(=O)C(C)C

>  <readout value>
1

$$$$

QUERY: Dear colleague, I am looking for the recorded fractional inhibitory concentration index (FICI) of the following molecule: C=C1[C@@H](OC(=O)C(C)CC)[C@H]2[C@@H](O)[C@](C)(OC(C)=O)C[C@]2(O)C(=O)[C@@H](C)/C=C/C(C)(C)[C@H](OC(C)=O)[C@H](OC(C)=O)[C@H]1OC(=O)c1ccccc1 (some centres undefined)
RESULT: 2

====

test system: Candida albicans; assay: Inhibition of Candida albicans MDR1 transporter expressed in Saccharomyces cerevisiae AD cells assessed as nile red dye accumulation at 70 uM after 30 mins by flow cytometric analysis relative to control; assay type: cell-based
The source made the active and inactive calls. The rule behind the calls is not given here.
recorded endpoint: inhibition

>  <chemical string>
C=C1[C@@H](OC(=O)C(C)C)[C@H]2[C@@H](OC(C)=O)[C@@H](C)C[C@]2(O)C(=O)[C@@H](C)/C=C/C(C)(C)[C@H](OC(C)=O)[C@H](OC(C)=O)[C@H]1OC(=O)c1ccccc1

>  <readout value>
inactive

$$$$
>  <chemical string>
C=C1[C@@H](OC(C)=O)[C@H]2[C@@H](OC(C)=O)[C@](C)(OC(C)=O)C[C@]2(OC(C)=O)C(=O)[C@H](C)/C=C/C(C)(C)C(=O)[C@H](OC(C)=O)[C@H]1OC(C)=O

>  <readout value>
inactive

$$$$
>  <chemical string>
C=C1[C@@H](OC(=O)C(C)C)[C@H]2[C@@H](O)[C@](C)(OC(C)=O)C[C@]2(O)C(=O)[C@@H](C)/C=C/C(C)(C)[C@H](OC(C)=O)[C@H](OC(C)=O)[C@H]1OC(=O)c1ccccc1

>  <readout value>
inactive

$$$$
>  <chemical string>
CC(=O)O[C@H]1[C@@H](OC(C)=O)C(C)(C)/C=C/[C@@](C)(O)C(=O)[C@@]2(OC(C)=O)C[C@@](C)(OC(C)=O)[C@H](OC(C)=O)[C@@H]2[C@H]2OC(=O)CC[C@@]2(OC(C)=O)[C@@H]1OC(=O)C(C)C

>  <readout value>
inactive

$$$$

QUERY: Which inhibition is listed for C=C1[C@@H](OC(C)=O)[C@H]2[C@@H](OC(C)=O)[C@](C)(OC(C)=O)C[C@]2(OC(C)=O)C(=O)[C@H](C)/C=C/C(C)(C)C(=O)[C@H](OC(=O)c2ccccc2)[C@H]1OC(C)=O ?
RESULT: inactive

QUERY: Another compound to look at: C=C1[C@@H](OC(C)=O)[C@H]2[C@@H](OC(C)=O)[C@](C)(O)C[C@]2(OC(C)=O)C(=O)[C@H](C)/C=C/C(C)(C)C(=O)[C@H](OC(=O)/C(C)=C/C)[C@H]1OC(C)=O
RESULT: inactive

QUERY: What about this compound? C=C1[C@@H](OC(C)=O)[C@H]2[C@@H](OC(C)=O)[C@](C)(OC(=O)c3cccnc3)C[C@]2(O)C(=O)[C@@H](C)/C=C/C(C)(C)[C@H](OC(=O)c2cccnc2)[C@H](OC(C)=O)[C@H]1OC(=O)c1ccccc1
RESULT: inactive

====

system: Candida albicans; assay: Inhibition of Candida albicans CDR1 transporter expressed in Saccharomyces cerevisiae AD cells assessed as nile red accumulation at 70 uM after 30 mins by flow cytometric analysis relative to control; format: cell-based
Calls of active or inactive are those of the source. No cut-off for these calls is given here.
recorded endpoint: inhibition

The cases that follow already have their inhibition on record.
>  <compound>
C=C1[C@@H](OC(C)=O)[C@H]2[C@@H](OC(C)=O)[C@](C)(O)C[C@]2(OC(C)=O)C(=O)[C@H](C)/C=C/C(C)(C)C(=O)[C@H](OC(=O)/C(C)=C/C)[C@H]1OC(C)=O

>  <recorded endpoint>
inhibition

>  <readout value>
inactive

$$$$
>  <compound>
C=C1[C@@H](OC(C)=O)[C@H]2[C@@H](OC(C)=O)[C@](C)(OC(=O)c3cccnc3)C[C@]2(OC(C)=O)C(=O)[C@@H](C)/C=C/C(C)(C)[C@H](OC(=O)c2cccnc2)[C@H](OC(C)=O)[C@H]1OC(=O)c1ccccc1

>  <recorded endpoint>
inhibition

>  <readout value>
inactive

$$$$
>  <compound>
C=C1[C@@H](OC(=O)C(C)C)[C@H]2[C@@H](OC(C)=O)[C@](C)(OC(=O)c3cccnc3)C[C@]2(O)C(=O)[C@@H](C)/C=C/C(C)(C)[C@H](OC(=O)c2cccnc2)[C@H](OC(C)=O)[C@H]1OC(=O)c1ccccc1

>  <recorded endpoint>
inhibition

>  <readout value>
inactive

$$$$
>  <compound>
C=C1[C@@H](OC(=O)c2ccccc2)[C@H]2[C@@H](O)[C@](C)(OC(C)=O)C[C@]2(O)C(=O)[C@@H](C)/C=C/C(C)(C)[C@H](OC(C)=O)[C@H](O)[C@H]1OC(=O)c1ccccc1

>  <recorded endpoint>
inhibition

>  <readout value>
inactive

$$$$
>  <compound>
C=C1[C@@H](OC(=O)c2ccccc2)[C@H]2[C@@H](O)[C@](C)(OC(C)=O)C[C@]2(O)C(=O)[C@@H](C)/C=C/C(C)(C)[C@H](OC(C)=O)[C@H](OC(C)=O)[C@H]1OC(=O)c1ccccc1

>  <recorded endpoint>
inhibition

>  <readout value>
inactive

$$$$

QUERY: Look up inhibition with Candida albicans for this compound: C=C1[C@@H](OC(C)=O)[C@H]2[C@@H](OC(C)=O)[C@](C)(OC(=O)c3cccnc3)C[C@]2(O)C(=O)[C@@H](C)/C=C/C(C)(C)[C@H](OC(=O)c2cccnc2)[C@H](OC(C)=O)[C@H]1OC(=O)c1ccccc1
RESULT: inactive

QUERY: Please answer likewise for C=C1[C@@H](OC(C)=O)[C@H]2[C@@H](OC(=O)c3ccccc3)[C@@H](C)C[C@]2(O)[C@H](OC(C)=O)[C@H](C)/C=C/[C@@](C)(CO)C(=O)[C@H](O)[C@H]1OC(C)=O
RESULT: inactive

QUERY: Same thing, different compound: C=C1[C@@H](OC(C)=O)[C@H]2[C@@H](OC(C)=O)[C@](C)(O)C[C@]2(OC(C)=O)C(=O)[C@H](C)/C=C/C(C)(C)C(=O)[C@H](OC(=O)c2ccccc2)[C@H]1OC(C)=O
RESULT: inactive

QUERY: Note, next up: C=C1[C@@H](OC(=O)C(C)C)[C@H]2[C@@H](OC(C)=O)[C@](C)(O)C[C@]2(O)C(=O)[C@@H](C)/C=C/C(C)(C)[C@H](OC(C)=O)[C@H](OC(C)=O)[C@H]1OC(=O)c1ccccc1
RESULT: inactive

QUERY: Next compound: C=C1[C@@H](OC(C)=O)[C@H]2[C@@H](OC(C)=O)[C@](C)(OC(C)=O)C[C@]2(OC(C)=O)C(=O)[C@H](C)/C=C/C(C)(C)C(=O)[C@H](OC(C)=O)[C@H]1OC(C)=O
RESULT: inactive

QUERY: And what about the compound C=C1[C@@H](OC(=O)C(C)C)[C@H]2[C@@H](O)[C@](C)(OC(C)=O)C[C@]2(O)C(=O)[C@@H](C)/C=C/C(C)(C)[C@H](OC(C)=O)[C@H](OC(C)=O)[C@H]1OC(=O)c1ccccc1 ?
RESULT: inactive

QUERY: Consider next the compound C=C1[C@@H](OC(C)=O)[C@H]2[C@@H](OC(C)=O)[C@](C)(OC(C)=O)C[C@]2(OC(C)=O)C(=O)[C@H](C)/C=C/C(C)(C)C(=O)[C@H](OC(=O)/C(C)=C/C)[C@H]1OC(C)=O in the same way.
RESULT: inactive

QUERY: Let us now turn to C=C1[C@@H](OC(C)=O)[C@H]2[C@@H](OC(=O)c3ccccc3)[C@@H](C)C[C@]2(O)[C@H](O)[C@H](C)/C=C/C(C)(C)C(=O)[C@H](OC(C)=O)[C@H]1OC(C)=O
RESULT: inactive

QUERY: And what about the compound CC(=O)O[C@H]1[C@@H](OC(C)=O)C(C)(C)/C=C/[C@H](C)C(=O)[C@@]2(OC(C)=O)C[C@@](C)(OC(C)=O)[C@H](O)[C@@H]2[C@H]2OC(=O)CC[C@@]2(OC(C)=O)[C@@H]1OC(=O)C(C)C ?
RESULT: inactive

QUERY: Also C=C1[C@@H](OC(=O)c2ccccc2)[C@H]2[C@@H](OC(C)=O)[C@](C)(O)C[C@]2(O)C(=O)[C@@H](C)/C=C/C(C)(C)[C@H](OC(C)=O)[C@H](OC(C)=O)[C@H]1OC(=O)c1cccnc1 ?
RESULT: inactive

QUERY: Would you mind doing C=C1CCC2[C@@H](/C=C(\C)C(=O)[C@@]3(OC(C)=O)C[C@H](C)[C@H](OC(C)=O)[C@@H]3[C@H]1OC(C)=O)C2(C)C (single isomer, unassigned) as well?
RESULT: inactive

QUERY: Cool, now C=C1[C@@H](OC(C)=O)[C@H]2[C@@H](OC(=O)c3ccccc3)[C@@H](C)C[C@]2(O)[C@H](O)[C@H](C)/C=C/C(C)(C)C(=O)[C@H](O)[C@H]1OC(C)=O
RESULT: inactive

QUERY: For C=C1[C@@H](OC(=O)C(C)C)[C@H]2[C@@H](OC(C)=O)[C@@H](C)C[C@]2(O)C(=O)[C@@H](C)/C=C/C(C)(C)[C@H](OC(C)=O)[C@H](OC(C)=O)[C@H]1OC(=O)c1ccccc1 then?
RESULT: inactive

QUERY: Next compound: CC(=O)O[C@H]1[C@@H](OC(C)=O)C(C)(C)/C=C/[C@@](C)(O)C(=O)[C@@]2(OC(C)=O)C[C@@](C)(OC(C)=O)[C@H](OC(C)=O)[C@@H]2[C@H]2OC(=O)CC[C@@]2(OC(C)=O)[C@@H]1OC(=O)C(C)C
RESULT: inactive
